read-out: CYP2C8 (gene 1558); test: LTEA_HepaRG_CYP2C8: Life Technologies and Expression Analysis (LTEA) Assay for CYP2C8 using HepaRG (AID 2283483); settings: mRNA level, 48 h; actives raise or lower the signal
Active and inactive are the calls of the source. How the source made its calls: active means hit-call score of the fitted dose curve at least 0.9, where 1 is the maximum; inactive means score below 0.9.
value kind: AC50

Worked cases, answers included:
| compound | reported measurement |
| --- | --- |
| CS(=O)(=O)c1cc(C(F)(F)F)ccc1C(=O)c1cnoc1C1CC1 | inactive |
| CCOc1nc(C(Cl)(Cl)Cl)ns1 | 1.14 µM (active) |
| CCCCOCN(C(=O)CCl)c1c(CC)cccc1CC | inactive |
| N#Cc1c[nH]cc1-c1cccc2c1OC(F)(F)O2 | inactive |
| CCCCC(C#N)(Cn1cncn1)c1ccc(Cl)cc1 (stereo not drawn) | 12.1 µM (active) |
| CC(C)C1(C)N=C(c2ncccc2C(=O)O)NC1=O (stereo not drawn) | inactive |

Please look at the following compound next.
Task: Can you share its AC50? I mean this compound: O=C1C2CC=CCC2C(=O)N1SC(Cl)(Cl)Cl (stereo not drawn)
Output: inactive

----------
target: Bile acid receptor (Homo sapiens) (UniProt Q96RI1); test: OT_FXR_FXRSRC1_0480: Odyssey Thera (OT) 8-hour HEK293T Protein-Complementation Assay for Farnesoid X receptor/SRC-1 Co-activator (AID 2283383)
Sequence (Q96RI1 whole entry, looked up): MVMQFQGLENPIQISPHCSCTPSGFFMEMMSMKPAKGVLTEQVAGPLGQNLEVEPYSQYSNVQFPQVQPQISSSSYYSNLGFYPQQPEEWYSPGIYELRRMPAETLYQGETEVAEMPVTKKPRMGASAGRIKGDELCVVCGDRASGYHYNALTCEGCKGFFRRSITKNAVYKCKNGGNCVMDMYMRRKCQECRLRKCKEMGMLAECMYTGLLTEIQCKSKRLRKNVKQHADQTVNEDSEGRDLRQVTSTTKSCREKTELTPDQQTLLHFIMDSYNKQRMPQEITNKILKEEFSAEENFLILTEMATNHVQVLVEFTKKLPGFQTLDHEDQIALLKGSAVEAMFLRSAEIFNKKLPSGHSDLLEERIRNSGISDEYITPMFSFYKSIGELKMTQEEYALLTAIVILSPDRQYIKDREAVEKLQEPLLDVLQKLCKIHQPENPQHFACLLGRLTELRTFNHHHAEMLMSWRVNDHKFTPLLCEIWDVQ
Inconclusive results are not listed. The source made the active and inactive calls. The calls were made as follows: active = hit-call score of the fitted dose curve at least 0.9, where 1 is the maximum; inconclusive = response in the unintended direction; inactive = score below 0.9.
Pick from label 1 for active, label 0 for inactive when you respond.

Record excerpt, results attached:
| compound | class |
| --- | --- |
| CS(=O)(=O)c1ccc(C(=O)C2C(=O)CCCC2=O)c([N+](=O)[O-])c1 | label 0 |
| O=P(O)(O)CCCl | label 0 |
| Clc1cccc(C(Cl)(Cl)Cl)n1 | label 0 |
| COc1cc(OC)nc(NC(=O)NS(=O)(=O)c2ncccc2OCC(F)(F)F)n1 | label 0 |
| CCOc1cc(C(C)(C)C)ccc1C1COC(c2c(F)cccc2F)=N1 (stereo not drawn) | label 1 |
| CCNC(=O)NC(=O)C(C#N)=NOC | label 0 |

Task: // return assay outcome for `O=C(O)c1c(Cl)ccc2cc(Cl)cnc12`
Output: label 0

Task: Look up the recorded call for COCC(C)N(C(=O)CCl)c1c(C)csc1C (stereo not drawn) in this test.
Output: label 0

Task: Record lookup: outcome of this test for COCC(=O)N(c1c(C)cccc1C)C(C)C(=O)OC (stereo not drawn) ?
Output: label 0

----------
read-out: Tumor necrosis factor receptor superfamily member 6 (Homo sapiens) (UniProt P25445); test: LTEA_HepaRG_FAS: Life Technologies and Expression Analysis (LTEA) Assay for Fas cell surface death receptor (FAS) using HepaRG (AID 2283447); details: mRNA level, 48 h; actives raise or lower the signal
Active and inactive are the calls of the source. The calls were made as follows: active = hit-call score of the fitted dose curve at least 0.9, where 1 is the maximum; inactive = score below 0.9.
value kind: outcome

| compound | outcome |
| --- | --- |
| O=C1C2CC=CCC2C(=O)N1SC(Cl)(Cl)Cl (stereo unspecified) | inactive |
| COC(=O)c1c(C(F)F)nc(C(F)(F)F)c(C2=NCCS2)c1CC(C)C | inactive |
| O=C(O)c1c(Cl)ccc2cc(Cl)cnc12 | inactive |
| COC(=O)N(C(=O)N1CO[C@@]2(C(=O)OC)Cc3cc(Cl)ccc3C2=N1)c1ccc(OC(F)(F)F)cc1 | inactive |
| CNC(=O)Oc1cccc2ccccc12 | inactive |

Task: Field request: outcome | item: CC1(C)CCC(=Cc2ccc(Cl)cc2)C1(O)Cn1cncn1 (stereo unspecified)
Output: inactive

----------
read-out: Monokine induced gamma interferon (MIG), CXCL9 (gene 4283); assay: BSK_hDFCGF_MIG: BioMAP Diversity Plus: hDFCGF Assay for Monokine induced gamma interferon (MIG) Biomarker Activity (AID 2283063); conditions: primary human foreskin fibroblasts; actives raise or lower the signal
Activity calls are given as the source filed them. The calls were made as follows: active = hit-call score of the fitted dose curve at least 0.9, where 1 is the maximum; inactive = score below 0.9.

| compound | outcome |
| --- | --- |
| CC(C)N1C(=O)c2ccccc2NS1(=O)=O | inactive |
| COCc1cnc(C2=NC(C)(C(C)C)C(=O)N2)c(C(=O)O)c1 (stereo not drawn) | inactive |
| Nc1cnn(-c2ccccc2)c(=O)c1Cl | inactive |

----------
read-out: Fatty Acid-Binding Protein 1 (FABP1), FABP1 (gene 2168); test: LTEA_HepaRG_FABP1: Life Technologies and Expression Analysis (LTEA) Assay for Fatty Acid-Binding Protein 1 (FABP1) using HepaRG (AID 2283494); conditions: mRNA level, 48 h; actives raise or lower the signal
The source made the active and inactive calls. The calls were made as follows: active = hit-call score of the fitted dose curve at least 0.9, where 1 is the maximum; inactive = score below 0.9.
Returns: one label drawn from active, inactive

Task: Please state the recorded outcome for this compound: `COc1cc(OC)nc(NC(=O)NS(=O)(=O)c2ncccc2OCC(F)(F)F)n1`
Output: inactive

----------
biological target: Nuclear receptor subfamily 4 group A member 2 (Homo sapiens); experiment: ATG_NURR1_TRANS: Attagene TRANS-FACTORIAL HepG2 Assay for human Nuclear Receptor Related Protein 1 (NURR1) (AID 2282985); settings: HepG2 Attagene TRANS reporter, mRNA readout
Records with an inconclusive call do not appear. The source made the active and inactive calls. Rule for the calls: active = hit-call score of the fitted dose curve at least 0.9, where 1 is the maximum; inconclusive = response in the unintended direction; inactive = score below 0.9.
Pick one and only one: active, inactive

| compound | class |
| --- | --- |
| CCN(CC)C(=O)C(C)Oc1cccc2ccccc12 (stereo not given) | inactive |
| COP(=S)(OC)Oc1ccc([N+](=O)[O-])c(C)c1 | inactive |
| CS(=O)(=O)c1ccc(C(=O)C2C(=O)CCCC2=O)c([N+](=O)[O-])c1 | inactive |
| CCOc1nc(F)cc2nc(S(=O)(=O)Nc3c(Cl)cccc3Cl)nn12 | inactive |
| CC1(C)CCC(=Cc2ccc(Cl)cc2)C1(O)Cn1cncn1 (stereo not given) | inactive |

Task: Hello, I am checking results. What call was entered for `CCOP(=S)(OCC)Oc1nc(Cl)n(C(C)C)n1` ?
Output: inactive

Task: Lab log entry: `COC(=O)N(C(=O)N1CO[C@@]2(C(=O)OC)Cc3cc(Cl)ccc3C2=N1)c1ccc(OC(F)(F)F)cc1` — outcome as called in the assay?
Output: inactive

Task: Fill in: this test's call for `CSC(=O)c1c(C(F)F)nc(C(F)(F)F)c(C(=O)SC)c1CC(C)C` is ___
Output: active

Task: Recorded call for CCCCC(O)(Cn1cncn1)c1ccc(Cl)cc1Cl (stereo not given) ?
Output: inactive

Task: // return assay outcome for `C=C(C)CN(CC)c1c([N+](=O)[O-])cc(C(F)(F)F)cc1[N+](=O)[O-]`
Output: inactive

Task: // param item: `N#Cc1c[nH]cc1-c1cccc2c1OC(F)(F)O2` ; yields the recorded call
Output: active

Task: Recorded test outcome, item `COP(=O)(OC)O/C(C)=C/C(=O)N(C)C`
Output: inactive

Task: Hi, sorry to bother you, what did the test record for CC1(C)C(C=C(Cl)Cl)C1C(=O)OC(C#N)c1cccc(Oc2ccccc2)c1 (stereo not given) ?
Output: inactive

Task: Which result was noted for this compound in the test: CCCCC(C#N)(Cn1cncn1)c1ccc(Cl)cc1 (stereo not given)
Output: inactive

Task: Answer briefly: the call reported for CC1(C)C(C(=O)OC(C#N)c2cccc(Oc3ccccc3)c2)C1(C)C (stereo not given) in this assay.
Output: inactive

Task: Tell me the assay call for CCNP(=S)(OC)O/C(C)=C/C(=O)OC(C)C (stereo not given) please.
Output: inactive

----------
test: STM_H9_NormalizedViability: Cytotoxicity Assessment at 120 hours in the Stemina devTOX quickPredict H9 human embryonic stem cell (hESC)-based Assay (AID 2283784)
Inconclusive results are not listed. Calls of active or inactive are those of the source. How the source made its calls: active means hit-call score of the fitted dose curve at least 0.9, where 1 is the maximum; inconclusive means response in the unintended direction; inactive means score below 0.9.
value kind: AC50

# count of solved cases: 4
| molecule | AC50 |
| --- | --- |
| CCOc1nc(C(Cl)(Cl)Cl)ns1 | inactive |
| COc1ccc(-c2ccccc2)cc1NNC(=O)OC(C)C | 45.6 µM (active) |
| CC1(C)CCC(=Cc2ccc(Cl)cc2)C1(O)Cn1cncn1 (configuration not stated) | inactive |
| CCCCC(C#N)(Cn1cncn1)c1ccc(Cl)cc1 (configuration not stated) | 56 µM (active) |

Task: Which AC50 is listed for `N#Cc1c[nH]cc1-c1cccc2c1OC(F)(F)O2` ?
Output: 76.4 µM (active)

Task: Given the molecule `N#CN=C1SCCN1Cc1ccc(Cl)nc1` , what is its reported AC50?
Output: inactive

Task: // lookup AC50 for COCc1cnc(C2=NC(C)(C(C)C)C(=O)N2)c(C(=O)O)c1 (configuration not stated)
Output: inactive

Task: Request the reported AC50 associated with `CC1(C)CON(Cc2ccccc2Cl)C1=O`
Output: inactive

Task: Look up AC50: CCN(CC)C(=O)C(C)Oc1cccc2ccccc12 (configuration not stated)
Output: inactive

Task: Please give the measured AC50 for this molecule: `O=C(Nc1ccccc1-c1ccc(Cl)cc1)c1cccnc1Cl`
Output: inactive

Task: I am curious: what AC50 value has been reported for CCCCC(O)(Cn1cncn1)c1ccc(Cl)cc1Cl (configuration not stated) ?
Output: 78.3 µM (active)

Task: For the molecule O=C1C2CC=CCC2C(=O)N1SC(Cl)(Cl)Cl (configuration not stated) , what AC50 is on record?
Output: inactive
